Numbers sourced from PubChem BioAssay AID1347131.

assay: qHTS Assay for Foot and Mouth Disease Virus Antivirals: Primary Screen against the MLPCN compound library; settings: FMDV antiviral cell-based qHTS; series mostly up to 57.9 µM; note: nearly all actives have a fitted effect of over 55% in size
The whole screen tested about 410,000 compounds, of which about 2,000 (0.49%) were called active. Another 8% or so got no clear call; they are omitted. Calls come from the whole dose curve; tested in HEK293 reporter line. Shown is part of a subset that was picked to be rich in actives.
Respond using exactly one of the listed classes: yes (1) = active, no (0) = inactive

Problem: Outcome logged for Cc1ccc(C(=O)COC(=O)c2cccc(NC(=O)c3ccc([N+](=O)[O-])cc3[N+](=O)[O-])c2)cc1 in this assay:
Solution: yes (1)

Problem: Outcome logged for CCCCn1nc2cc(C(=O)NCC34CC5CC(CC(C5)C3)C4)ccc2c1OC in this assay:
Solution: no (0)

Problem: Outcome logged for CN(C)c1ccc(C(=O)N2CCCC(CCC(=O)N3CCN(c4ccccn4)CC3)C2)cc1 (stereo not given) in this assay:
Solution: no (0)

New cases:
Problem: Outcome logged for Cc1cc(OCCOc2cccc3cccnc23)cc(C)c1Cl in this assay:
Solution: no (0)

Problem: Outcome logged for CCCCCn1c(CCCNC(=O)c2cccc(C)c2)nc2ccccc21 in this assay:
Solution: no (0)

Problem: Outcome logged for Cc1nnsc1C(=O)N/N=C/c1ccc2ccccc2c1O in this assay:
Solution: no (0)

Problem: Outcome logged for COc1ccc(NC(=O)Nc2c(O)ccc3ccccc23)cc1 in this assay:
Solution: no (0)

Problem: Outcome logged for COc1ccc(N=Nc2ccc3ccccc3c2)c(O)c1 in this assay:
Solution: yes (1)

Problem: Outcome logged for Cc1ccc(-c2cc(-c3ccccc3)cc(-c3ccccc3)[n+]2-c2ccccc2C(=O)O)cc1 in this assay:
Solution: no (0)

Problem: Outcome logged for COc1ccc2c(Cl)c(C(=O)OCC(=O)c3ccc4c(c3)NC(=O)CO4)sc2c1Cl in this assay:
Solution: no (0)

###

assay: qHTS Assay for Foot and Mouth Disease Virus Antivirals: Primary Screen against the MLPCN compound library; details: FMDV antiviral cell-based qHTS; series mostly up to 57.9 µM; note: nearly all actives have a fitted effect of over 55% in size
Among all 410,000 compounds or so, about 2,000 (0.49%) were called active. Inconclusive results (about 8%) are left out. The call rests on the fitted dose curve; tested in HEK293 reporter line. This excerpt belongs to a sample that is enriched for actives.
Respond using exactly one of the listed classes: active, inactive

Before answering, review these 10 worked examples.
Problem: Outcome logged for Cc1ccc(Nc2sc(C(=O)c3ccccc3)c(N)c2C(=O)Nc2ccc(Cl)cc2)cc1 in this assay:
Solution: active

Problem: Outcome logged for CSc1ccc(/C=C/c2nc3ccccc3n2S(=O)(=O)c2ccc(F)c(C)c2)cc1 in this assay:
Solution: active

Problem: Outcome logged for Cc1cc(S(=O)(=O)N2CCN(c3ccccc3F)CC2)ccc1-n1cnnn1 in this assay:
Solution: inactive

Problem: Outcome logged for COc1ccc2oc(=O)c(C(=O)NCCc3c(C)[nH]c4ccc(C)cc34)cc2c1 in this assay:
Solution: inactive

Problem: Outcome logged for O=c1c2ccccc2sc2ccc(C#CC3(O)CCCCC3)cc12 in this assay:
Solution: inactive

Problem: Outcome logged for CCC(C)NC(=O)c1cc(-c2ccccc2O)on1 (stereo unspecified) in this assay:
Solution: inactive

Problem: Outcome logged for CCOc1cc(-c2c(C#N)c(=O)[nH]c3c2c(C)nn3-c2ccc(F)cc2)ccc1O in this assay:
Solution: inactive

Problem: Outcome logged for O=C(COc1ccc(Br)cc1)N1CCN(c2ccccc2)CC1 in this assay:
Solution: inactive

Problem: Outcome logged for Nc1nc2ccccc2n1C(=O)c1ccc(F)cc1 in this assay:
Solution: active

Problem: Outcome logged for Cc1ccc2c(c1)N(C(=O)Nc1cccc3c1CCCC3)CCO2 in this assay:
Solution: inactive

New cases:
Problem: Outcome logged for Cc1cc(C(=O)Nc2nc(C)c(C(=O)N(C)C)s2)ccc1[N+](=O)[O-] in this assay:
Solution: active
